Origin of values: ChEMBL document CHEMBL4138216

target: UniProt P70531; experiment: Inhibition of recombinant rat GST-tagged eEF2K expressed in Escherichia coli BL21 (DE3) cells using yeast eEF2 as substrate preincubated for 30 mins followed by ATP/[gamma-32P]-ATP addition measured after 10 mins
Sequence (P70531 whole entry): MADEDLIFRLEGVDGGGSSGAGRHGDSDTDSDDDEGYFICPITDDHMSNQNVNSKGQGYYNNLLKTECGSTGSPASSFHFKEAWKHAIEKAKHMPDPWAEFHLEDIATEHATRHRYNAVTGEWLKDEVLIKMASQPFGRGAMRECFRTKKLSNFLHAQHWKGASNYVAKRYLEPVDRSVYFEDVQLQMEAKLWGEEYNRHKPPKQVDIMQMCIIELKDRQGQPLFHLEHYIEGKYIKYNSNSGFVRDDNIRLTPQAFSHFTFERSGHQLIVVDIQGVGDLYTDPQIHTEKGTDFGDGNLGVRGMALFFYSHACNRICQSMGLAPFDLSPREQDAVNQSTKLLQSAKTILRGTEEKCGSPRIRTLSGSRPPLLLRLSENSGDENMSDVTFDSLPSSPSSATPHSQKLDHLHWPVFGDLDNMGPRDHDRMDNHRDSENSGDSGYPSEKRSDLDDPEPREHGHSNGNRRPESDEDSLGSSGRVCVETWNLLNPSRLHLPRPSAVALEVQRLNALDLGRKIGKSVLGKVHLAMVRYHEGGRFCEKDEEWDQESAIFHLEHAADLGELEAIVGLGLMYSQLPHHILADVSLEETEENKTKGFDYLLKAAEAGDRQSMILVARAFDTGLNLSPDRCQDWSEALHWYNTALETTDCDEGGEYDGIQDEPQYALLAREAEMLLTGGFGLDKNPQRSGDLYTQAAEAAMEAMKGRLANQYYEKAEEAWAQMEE
Test Readout: IC50 (nM)
Kindly answer with a numeric value in nM, unit omitted.

// IC50 value for CCC1(O)CC(C(C)C)[Se]C(c2ccc(C)cc2)=N1 (stereo unspecified) : 360

* * *

// reported pIC50 for each item listed
biological target: Eukaryotic elongation factor 2 kinase (Homo sapiens, UniProt O00418); test: Inhibition of eEF2K (unknown origin) using peptide MH-1 as substrate after 2 hrs by ADP-Glo luminescent assay
Sequence (O00418 whole entry): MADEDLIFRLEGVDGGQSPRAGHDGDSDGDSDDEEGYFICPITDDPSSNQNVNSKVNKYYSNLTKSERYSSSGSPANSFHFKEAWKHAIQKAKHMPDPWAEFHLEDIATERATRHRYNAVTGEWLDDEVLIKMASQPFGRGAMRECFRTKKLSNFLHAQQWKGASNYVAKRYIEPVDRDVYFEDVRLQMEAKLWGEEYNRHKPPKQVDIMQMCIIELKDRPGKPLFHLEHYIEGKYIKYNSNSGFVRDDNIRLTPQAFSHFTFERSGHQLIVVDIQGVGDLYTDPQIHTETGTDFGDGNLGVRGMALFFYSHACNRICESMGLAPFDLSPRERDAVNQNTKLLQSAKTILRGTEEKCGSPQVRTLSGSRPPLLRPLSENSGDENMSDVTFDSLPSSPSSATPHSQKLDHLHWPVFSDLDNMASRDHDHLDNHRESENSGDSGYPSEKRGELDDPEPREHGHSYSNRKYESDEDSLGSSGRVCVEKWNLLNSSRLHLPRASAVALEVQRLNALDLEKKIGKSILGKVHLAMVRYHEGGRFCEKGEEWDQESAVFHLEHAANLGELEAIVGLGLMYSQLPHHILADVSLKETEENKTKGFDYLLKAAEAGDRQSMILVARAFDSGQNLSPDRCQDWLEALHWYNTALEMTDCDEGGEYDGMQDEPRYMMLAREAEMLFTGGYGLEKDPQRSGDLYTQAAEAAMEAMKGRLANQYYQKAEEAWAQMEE
The value called pIC50 is obtained by taking minus log10 of the concentration in mol/L.

{"Compound": "O=C(O)CC(NC(=O)c1ccc(F)cc1)c1ccccc1F (stereo not drawn)", "Observed Value": 4.44}
{"Compound": "O=C(O)CC(NC(=O)c1ccc(F)cc1)c1ccccc1 (stereo not drawn)", "Observed Value": 4.45}

As a next step, examine the compound that follows.
# value of pIC50, Eukaryotic elongation factor 2 kinase (Homo sapiens, UniProt O00418), item O=C(O)CC(NS(=O)(=O)c1ccc(C(F)(F)F)cc1)c1ccccc1 (stereo not drawn) = 4.71

* * *

target: Eukaryotic elongation factor 2 kinase (Homo sapiens, UniProt O00418); assay: Inhibition of eEF2K (unknown origin) using peptide MH-1 as substrate after 2 hrs by ADP-Glo luminescent assay
Test Readout: IC50

{"Compound": "CC(C)(C)c1ccc(C(CC(=O)O)NC(=O)c2ccc(Cl)cc2Cl)cc1 (stereo not given)", "Experimental System": "Eukaryotic elongation factor 2 kinase (Homo sapiens, UniProt O00418)", "IC50": "23.8 µM"}
{"Compound": "COc1ccccc1S(=O)(=O)NC(CC(=O)O)c1ccc(C(C)(C)C)cc1 (stereo not given)", "Experimental System": "Eukaryotic elongation factor 2 kinase (Homo sapiens, UniProt O00418)", "IC50": "> 50 µM"}
{"Compound": "N#Cc1ccc(S(=O)(=O)NC(CC(=O)O)c2ccccc2)cc1 (stereo not given)", "Experimental System": "Eukaryotic elongation factor 2 kinase (Homo sapiens, UniProt O00418)", "IC50": "18.7 µM"}

// IC50 value for O=C(O)CC(NC(=O)c1ccc(F)cc1)c1ccc(Cl)cc1Cl (stereo not given) : 17.1 µM

// IC50 value for O=C(O)CC(NS(=O)(=O)c1ccc(C(F)(F)F)cc1)c1ccc(Cl)cc1Cl (stereo not given) : 9.5 µM

// IC50 value for O=C(O)CC(NS(=O)(=O)c1cc(F)cc(F)c1)c1ccccc1 (stereo not given) : 37.8 µM

// IC50 value for CC(C)(C)c1ccc(C(CC(=O)O)NC(=O)c2c(Cl)cccc2Cl)cc1 (stereo not given) : > 50 µM

// IC50 value for CC(C)(C)c1ccc(C(CC(=O)O)NS(=O)(=O)c2ccc(OC(F)(F)F)cc2)cc1 (stereo not given) : > 50 µM

// IC50 value for O=C(O)CC(NS(=O)(=O)c1ccc(C(F)(F)F)cc1)c1ccccc1F (stereo not given) : 11.6 µM

// IC50 value for O=C(O)CC(NS(=O)(=O)c1cc(F)cc(F)c1)c1ccccc1F (stereo not given) : 19.4 µM

* * *

system: MDA-MB-436; test: Antiproliferative activity against human MDA-MB-436 cells assessed as decrease in cell viability after 24 hrs by MTT assay; format: functional, cell-based; settings: MDA-MB-436, 24 h
Test Readout: pIC50
The value called pIC50 is obtained by taking minus log10 of the concentration in mol/L.

{"Molecule": "CC(C)(C)c1ccc(C(CC(=O)O)NC(=O)c2ccc(C(F)(F)F)cc2)cc1 (stereo not given)", "Observed Value": 4.08}

As a next step, examine the molecule that follows.
// pIC50 value for O=C(O)CC(NC(=O)c1ccc(Cl)cc1Cl)c1ccccc1 (stereo not given) : 4.11
